target: glutathione S-transferase (GST)-fused full-length human Syk protein (Homo sapiens, UniProt P43405); construct: (GST)-fused full-length human Syk protein; GST (glutathione S-transferase); purchased Carna Biosciences; assay: Syk enzyme assay; type: biochemical; conditions: Syk enzyme assay, Test Example 1; read-out: IC50 of Syk-inhibitory activity
I'd appreciate it if you could supply IC50 values for the items below.

// IC50 lookup, compound = CCC[C@@H](Nc1nc(Nc2cncc(-n3cccn3)c2)c(C(N)=O)cc1F)[C@H](C)N , result: < 10 nM

// IC50 lookup, compound = NC(=O)c1cc(F)c(N[C@@H]2CCCC[C@@H]2N)nc1Nc1cncc(-n2cccn2)c1 [Example 006-168] , result: < 10 nM

// IC50 lookup, compound = CC[C@H](N)[C@@H](CC)Nc1nc(Nc2cnc(C)c(-n3nccn3)c2)c(C(N)=O)cc1F , result: 10 to 50 nM

// IC50 lookup, compound = NC(=O)c1cc(F)c(NC2CCCCC2N)nc1Nc1ccc2c(c1)c(F)nn2CCF (stereo not shown) , result: < 10 nM
